# target of assay: Thymidine kinase, cytosolic (Rattus norvegicus, UniProt P27158)
# Sequence (P27158 whole entry): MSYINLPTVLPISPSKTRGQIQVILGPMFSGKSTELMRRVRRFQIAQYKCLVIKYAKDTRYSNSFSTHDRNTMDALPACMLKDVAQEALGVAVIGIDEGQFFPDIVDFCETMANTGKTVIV
# assay summary: Competitive inhibition against rat cytoplasmic Thymidine kinase
measured metric: Ki (µM)

Example cases with answers are listed next.
Cc1cn(C2CC(O)C(CSCCO)O2)c(=O)[nH]c1=O (stereo unspecified) :: 820
Cc1cn([C@H]2C[C@H](O)[C@@H](CN)O2)c(=O)[nH]c1=O :: 2.4

[a] CCOC1N([C@H]2C[C@H](O)[C@@H](CO)O2)C(=O)NC(=O)C1(C)Br (stereo in doubt; 4c)
[b] Cc1cn([C@H]2C[C@H](O)[C@@H](CO)O2)c(=O)nc1N
Prompt: Returns the identifier with the smallest measured Ki among a and b . Please respond with the label that marks your chosen entry.
Response: a
(a: 3.9 µM, b: 2100 µM)

---

# target of assay: Thymidine kinase 2 (Rattus norvegicus, UniProt D3ZGQ2)
# Sequence (D3ZGQ2 whole entry): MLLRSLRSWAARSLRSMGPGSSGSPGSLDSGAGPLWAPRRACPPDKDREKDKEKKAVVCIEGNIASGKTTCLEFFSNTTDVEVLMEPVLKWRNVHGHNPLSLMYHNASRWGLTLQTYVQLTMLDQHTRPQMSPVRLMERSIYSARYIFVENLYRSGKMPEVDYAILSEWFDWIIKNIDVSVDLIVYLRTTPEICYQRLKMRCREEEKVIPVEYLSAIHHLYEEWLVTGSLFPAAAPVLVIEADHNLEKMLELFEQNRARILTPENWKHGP
# assay summary: Competitive inhibition against rat mitochondrial thymidine kinase
pKi: −log10 of the molar value.
measured metric: pKi

Nc1ccn([C@H]2C[C@H](O)[C@@H](CO)O2)c(=O)n1 :: 3.49
Cc1cn([C@H]2C[C@H](OCc3ccccc3)[C@@H](CO)O2)c(=O)[nH]c1=O :: 5.10
Nc1cn([C@H]2C[C@H](O)[C@@H](CO)O2)c(=O)[nH]c1=O :: 4.14
CCCCCCNCC1OC(n2cc(C)c(=O)[nH]c2=O)CC1O (stereo unspecified) :: 3.02

[A] CCSC1CC(n2cc(C)c(=O)[nH]c2=O)OC1CO (stereo unspecified)
[B] Cc1cn([C@H]2C=C[C@@H](CO)O2)c(=O)[nH]c1=O
Prompt: Look at A and B . Which one has the lower recorded pKi number? I would appreciate it if you answered with the label of your choice.
Response: B
(B: 2.49, A: 4.21)

---

# target of assay: Thymidine kinase 2 (Rattus norvegicus)
# assay summary: Affinity towards mitochondrial thymidine kinase relative to TdR.
measured metric: Relative affinity

Cc1cn([C@H]2C[C@H](OCc3ccccc3)[C@@H](CO)O2)c(=O)[nH]c1=O :: 1
CCCCCCNCC1OC(n2cc(C)c(=O)[nH]c2=O)CC1O (configuration not stated) :: 0.0083

[1] Cc1cn([C@H]2C[C@H](N)[C@@H](CO)O2)c(=O)[nH]c1=O
[2] Nc1cn([C@H]2C[C@H](O)[C@@H](CO)O2)c(=O)[nH]c1=O
Prompt: Pick the one with the larger Relative affinity: 1 vs 2 Please identify the chosen entry by its label.
Response: 2

[1] Cc1cn([C@H]2C[C@H](O)[C@@H](CO)O2)c(=O)nc1N
[2] Nc1ccn([C@H]2C[C@H](O)[C@@H](CO)O2)c(=O)n1
Prompt: Identify the entry with the larger Relative affinity. Options: 1 and 2 Bench note: the answer is the label of the chosen record.
Response: 2

---

# target of assay: Thymidine kinase, cytosolic (Rattus norvegicus, UniProt P27158)
# assay summary: Competitive inhibition against rat cytoplasmic Thymidine kinase
pKi: −log10 of the molar value.
measured metric: pKi

[I] Cc1cn([C@H]2C[C@H](N)[C@@H](CO)O2)c(=O)[nH]c1=O
[II] CSc1cn([C@H]2C[C@H](O)[C@@H](CO)O2)c(=O)[nH]c1=O
Prompt: Could you check which of I and II has a smaller value for pKi? Answer by quoting the chosen item's label.
Response: I

[P] CCOC1N([C@H]2C[C@H](O)[C@@H](CO)O2)C(=O)NC(=O)C1(C)Br (stereo in doubt; 4b)
[Q] C/C=C/c1cn([C@H]2C[C@H](O)[C@@H](CO)O2)c(=O)[nH]c1=O
Prompt: Which entry has a larger number for pKi, P or Q ? Output the label that corresponds to your choice.
Response: P

---

# target of assay: Thymidine kinase, cytosolic (Rattus norvegicus)
# assay summary: Ability to inhibit rat cytoplasmic Thymidine kinase
# Parameters: concentration or dose not given beside the values
# conditions: concentration not given here
measured metric: inhibition (%)

Example entries and their recorded answers appear below.
CC(=O)NCC1OC(n2cc(C)c(=O)[nH]c2=O)CC1O (stereo not drawn) :: 20
Nc1ccn([C@H]2C[C@H](O)[C@@H](CO)O2)c(=O)n1 :: 7
CC(=O)Nc1cn([C@H]2C[C@H](O)[C@@H](CO)O2)c(=O)[nH]c1=O :: 0
Nc1ccn([C@@H]2O[C@H](CO)[C@@H](O)[C@H]2O)c(=O)n1 :: 1
Cc1cn(C2CC(O)C(CSCCCC(=O)O)O2)c(=O)[nH]c1=O (stereo not drawn) :: 48

[1] Cc1cn(C2CC(O)C(CSCCO)O2)c(=O)[nH]c1=O (stereo not drawn)
[2] O=c1ccn([C@@H]2O[C@H](CO)[C@@H](O)[C@H]2O)c(=O)[nH]1
[3] O=c1ccn([C@H]2C[C@H](O)[C@@H](CO)O2)c(=O)[nH]1
[4] NCc1cn([C@H]2C[C@H](O)[C@@H](CO)O2)c(=O)[nH]c1=O
[5] CCNc1ccn([C@H]2C[C@H](O)[C@@H](CO)O2)c(=O)n1
Prompt: Parameters: sort_field (inhibition), sort_dir (desc). Put the labels in the requested order and list them out.
Response: 3, 1, 4, 5, 2
(3: 90%, 1: 49%, 4: 30%, 5: 7%, 2: 4%)

[a] CCCCNCC1OC(n2cc(C)c(=O)[nH]c2=O)CC1O (stereo not drawn)
[b] Cc1cn(C2CC(O)C(CSCCC(=O)O)O2)c(=O)[nH]c1=O (stereo not drawn)
[c] CCSCC1OC(n2cc(C)c(=O)[nH]c2=O)CC1O (stereo not drawn)
Prompt: Sort the compounds on inhibition; start with the lowest figure. Quick reminder: the answer is the labels in the order asked.
Response: c, b, a

---

# target of assay: UniProt:P27158
# assay summary: Competitive inhibition against rat cytoplasmic thymidine kinase
measured metric: Ki (µM)

[1] Cc1cn([C@H]2C[C@H](OCc3ccccc3)[C@@H](CO)O2)c(=O)[nH]c1=O
[2] CCO[C@H]1C[C@H](n2cc(C)c(=O)[nH]c2=O)O[C@@H]1CO
[3] Cc1cn([C@H]2C[C@H](O)[C@@H](CO)O2)c(=O)n(Cc2ccccc2)c1=O
Prompt: Lab note: arrange the 3 compounds above from lowest to highest Ki. // format: requested-order list of labels
Response: 1, 2, 3
(1: 12 µM, 2: 36 µM, 3: 320 µM)

---

# Species on record: Rattus norvegicus
# assay summary: Differential affinity is the ratio between M-TK and C-TK
measured metric: Differential affinity

Cc1cn([C@H]2C[C@H](OCc3ccccc3)[C@@H](CO)O2)c(=O)[nH]c1=O :: 7.5

[1] CCCCCCNCC1OC(n2cc(C)c(=O)[nH]c2=O)CC1O (stereo not given)
[2] Cc1cn([C@H]2C=C[C@@H](CO)O2)c(=O)[nH]c1=O
Prompt: Select the item with the higher value of Differential affinity from the options 1 and 2 listed. Answer = label.
Response: 2

[P] CCOC1N([C@H]2C[C@H](O)[C@@H](CO)O2)C(=O)NC(=O)C1(C)Br (stereo in doubt; 4b)
[Q] Cc1cn([C@H]2CC[C@@H](CO)O2)c(=O)[nH]c1=O
[R] CCNCC1OC(n2cc(C)c(=O)[nH]c2=O)CC1O (stereo not given)
Prompt: Order by Differential affinity, ascending. Give the labels in the order requested.
Response: R, P, Q

[P] CCOC1N([C@H]2C[C@H](O)[C@@H](CO)O2)C(=O)NC(=O)C1(C)Br (stereo in doubt; 4c)
[Q] Cc1cn([C@H]2C[C@H](N)[C@@H](CO)O2)c(=O)[nH]c1=O
Prompt: From the items above, decide which of P and Q has the lower Differential affinity reading. Kindly give the label for the entry you pick.
Response: Q

---

# target of assay: Thymidine kinase 2 (Rattus norvegicus)
# assay summary: Affinity towards mitochondrial thymidine kinase relative to TdR.
measured metric: Relative affinity

Sample answers from the record:
CCOC1N([C@H]2C[C@H](O)[C@@H](CO)O2)C(=O)NC(=O)C1(C)Br (stereo in doubt; 4c) :: 0.73
CCNCC1OC(n2cc(C)c(=O)[nH]c2=O)CC1O (stereo not given) :: 0.0056
CCO[C@H]1C[C@H](n2cc(C)c(=O)[nH]c2=O)O[C@@H]1CO :: 0.14

[P] CCSC1CC(n2cc(C)c(=O)[nH]c2=O)OC1CO (stereo not given)
[Q] CCCCCn1c(=O)c(C)cn([C@H]2C[C@H](O)[C@@H](CO)O2)c1=O
[R] CCOC1N([C@H]2C[C@H](O)[C@@H](CO)O2)C(=O)NC(=O)C1(C)Br (stereo in doubt; 4b)
[S] Cc1cn([C@H]2C[C@H](O)[C@@H](CN)O2)c(=O)[nH]c1=O
[T] CSc1cn([C@H]2C[C@H](O)[C@@H](CO)O2)c(=O)[nH]c1=O
Prompt: Rank the items in ascending order with respect to Relative affinity. Sort the labels as requested; that list is your answer.
Response: S, Q, T, P, R

[I] CC1CN([C@H]2C[C@H](O)[C@@H](CO)O2)C(=O)NC1=O (stereo not given in full)
[II] Cc1cn([C@H]2CC[C@@H](CO)O2)c(=O)[nH]c1=O
Prompt: Please indicate which has the smaller reported Relative affinity: I , or II . Record your answer as the label of the chosen record.
Response: II
(II: 0.0091, I: 0.1)

Taken from ChEMBL document CHEMBL1122068.
